# Tested on: 945468-187-T-J3-PDC spheroids with HUVEC/MSC, viability
# assay.remarks: Anticancer human tumor 945468-187-T-J3-PDC patient-derived rectal carcinoma cell line growth inhibition [PI3K]
# measurement.setup: second compound 0.1 µM; first compound 0.316 µM; active compounds read low
Mark YES for viability, T/C under 90%, NO if at or over.

Below 90% on viability, T/C? Entry Cn1nccc1Nc1nccc(-c2ccn(C(CO)c3ccc(Cl)c(F)c3)c(=O)c2)n1 (stereo not given) + CC(Nc1ccc2c(c1)OCCn1cc(N3C(=O)OCC3C(F)F)nc1-2)C(N)=O
NO

###

# Test system: 945468-187-T-J3-PDC spheroids with HUVEC/MSC, viability
# assay.remarks: Anticancer human tumor 945468-187-T-J3-PDC cell line growth inhibition [PI3K];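 also: spheroids exposed to agents for 7 days before viability read; 100% = DMSO vehicle control viability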
# measurement.setup: second compound 0.0316 µM; first compound 0.00949 µM; active compounds read low
experimental.readout: viability, T/C (%)
# number only, unit % dropped from output

>>> print(df.to_string())
                                   compound  meas_value
0  Cn1cnc2c(F)c(Nc3ccc(Br)cc3Cl)c(C(=O)NOCCO)cc21 + CC(Nc1ccc2c(c1)OCCn1cc(N3C(=O)OCC3C(F)F)nc1-2)C(N)=O         107
1  Cn1cnc2c(F)c(Nc3ccc(Br)cc3Cl)c(C(=O)NOCCO)cc21 + Cc1nc(NC(=O)N2CCCC2C(N)=O)sc1-c1ccnc(C(C)(C)C(F)(F)F)c1         111
2  Cn1cnc2c(F)c(Nc3ccc(Br)cc3Cl)c(C(=O)NOCCO)cc21 + CC(Nc1ncnc2nc[nH]c12)c1cc2cccc(Cl)c2c(=O)n1-c1ccccc1         106

Look up 945468-187-T-J3-PDC spheroids with HUVEC/MSC, viability data: viability, T/C of Cn1cnc2c(F)c(Nc3ccc(Br)cc3Cl)c(C(=O)NOCCO)cc21 + COc1c(OCCCN2CCOCC2)ccc2c3n(c(=NC(=O)c4cnc(N)nc4)nc12)CCN3 , then report it.
93.5

###

The following compounds are listed with their measured viability, T/C values.
# Tested on: 945468-187-T-J3-PDC spheroids with HUVEC/MSC, viability
# assay.remarks: Anticancer human tumor 945468-187-T-J3-PDC cell line growth inhibition [PI3K];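 also: spheroids exposed to agents for 7 days before viability read; 100% = DMSO vehicle control viability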
# measurement.setup: second compound 0.1 µM; first compound 0.316 µM; active compounds read low
# number only, unit % dropped from output

Some compounds with known viability, T/C results, for comparison:
compound	viability, T/C / %
Cn1nccc1Nc1nccc(-c2ccn(C(CO)c3ccc(Cl)c(F)c3)c(=O)c2)n1 (stereo not given) + COc1c(OCCCN2CCOCC2)ccc2c3n(c(=NC(=O)c4cnc(N)nc4)nc12)CCN3	55.6
CCN1CCN(Cc2ccc(Nc3ncc(F)c(-c4cc(F)c5nc(C)n(C(C)C)c5c4)n3)nc2)CC1 + CC(Nc1ccc2c(c1)OCCn1cc(N3C(=O)OCC3C(F)F)nc1-2)C(N)=O	69
C[C@@H](NC(=O)c1ncnc(N)c1Cl)c1ncc(C(=O)Nc2cc(C(F)(F)F)c(Cl)cn2)s1 + CC(Nc1ccc2c(c1)OCCn1cc(N3C(=O)OCC3C(F)F)nc1-2)C(N)=O	101
CC1(C)CCC(Nc2ncc(C(F)(F)F)c(-c3c[nH]c4c(P(C)(C)=O)c(C#N)ccc34)n2)CN1 (stereo not given) + CC(Nc1ccc2c(c1)OCCn1cc(N3C(=O)OCC3C(F)F)nc1-2)C(N)=O	70.8

Give me measured viability, T/C, please, for this compound: CCCS(=O)(=O)Nc1ccc(F)c(C(=O)c2c[nH]c3ncc(-c4ccc(Cl)cc4)cc23)c1F + CC(Nc1ncnc2nc[nH]c12)c1cc2cccc(Cl)c2c(=O)n1-c1ccccc1
93.8
